Assay: folding stability dG unfold from chymotrypsin proteolysis; higher = more stable
Label scheme for folding stability dG unfold: Low (below 1 kcal/mol), Medium (1 kcal/mol to below 2 kcal/mol), High (2 kcal/mol or more)

>  <sequence chain>
SAGGSAGGSAGGGSFVLTRHTRTGLRRRVYFDPETGELTVELETGTESRTTLSPLSPDLSAGGSAGGSAGGS [r10_376_TrMRF]

>  <assigned class>
Low

$$$$
>  <sequence chain>
SAGGMIRITEGPNYYKITFWMPPNNPSLLEEIADFFGNPKVDTEPIPEDGMTRHEITLPLDDPEAIKSAGGS [r16_479_TrROS]

>  <assigned class>
Medium

$$$$
>  <sequence chain>
SMITIPYNIQTDPSQAEKLAEEIAKEVEEKYGLKVVGVELVEWVPAPDGSESSVKVEIKIEAPDPKNILLSA [r9_302_JUSTAS]

>  <assigned class>
Low

$$$$
>  <sequence chain>
SEEPVEERDIVVKPGEEVKLELPEEPETVRVYVFNEDGELIEEREFPPGATPEELEGLKLPPGAVVRIVRSA [r9_215_TrROS_Hall]

>  <assigned class>
High

$$$$
>  <sequence chain>
SAGSWIDKLPPSFTSSSPLAKRPDGTRVYAYEYTTESSPSILLVEFDASGRLRKIEKLDPETAAKAIAASAG [r5_73_JUSTAS]

>  <assigned class>
Medium

$$$$
>  <sequence chain>
SAGGSAGGSAGMNKKGKYTVIEELVINPKTNYLFKKKVTIYPDGKIEVKSELLGPILPTESAGGSAGGSAGG [r11_226_TrMRF]

>  <assigned class>
Medium

$$$$
>  <sequence chain>
SAGGSAGGSAGMTLTVTSPSSDTPIGTIELPSSLSEEELEAAVEAVRAALPPDVTVEVTGSAGGSAGGSAGG [r11_1081_JUSTAS]

>  <assigned class>
Low

$$$$
>  <sequence chain>
SAGGSAGGSAMKTIPVKTKEEAEKLAEELKASGYGEVKKTKSGNIIVKAPDGIDVKIVVPEKSAGGSAGGSA [r18_126_JUSTAS]

>  <assigned class>
Low

$$$$
>  <sequence chain>
SAGMKKLPSEEERKKAEELAKKGELVIIIRLKNGEKLVIVVKSEEELKELLKKLPLEIEEIYVFKVKKKSAG [r5_481_TrROS_Hall]

>  <assigned class>
High

$$$$
>  <sequence chain>
SAGGSAGGSAGGSITITTEPLPSGGRRVTVTLPGSSVVLELEFSPDETEEEVRAAVEAASAGGSAGGSAGGS [r10_825_JUSTAS]

>  <assigned class>
High

$$$$
>  <sequence chain>
SAGGSLLEQEAAARGYQVEIERIPGTGVYLVTLTPPDGSRVVVTVEVVKTPKTGLVELRTLETRELPPSAGG [r13_936_JUSTAS]

>  <assigned class>
Medium

$$$$
>  <sequence chain>
SAGGSKKTLTITVKNKETGETVKIKVELTPDGKKIKITIVAKKEEEAKEAAKKLLEELGYKVEIVPSAGGSA [r2_30_TrROS_Hall]

>  <assigned class>
Medium

$$$$
>  <sequence chain>
SAGGSAGGMLRVRVETTLPGSGETLDLELEFPSEEEARRAIEALVPPEERAEVRVEFLPPGVPESAGGSAGG [r6_657_JUSTAS]

>  <assigned class>
Medium

$$$$

* * *

Each record here notes measured folding stability dG unfold.
Assay: folding stability dG unfold from chymotrypsin proteolysis; higher = more stable

>  <sequence chain>
SAGGSAGGSAGGPSPSTPVTVTVTFPETGETVTLEVTDLEELRERFPDRPVEITVSPGGSAGGSAGGSAGGS [r10_1004_JUSTAS]

>  <folding stability dG unfold>
8.81 kJ/mol

$$$$
>  <sequence chain>
SATFRLPNGKTISIMAPLPPGEMTPDQVISMARMIVRNIFPPGKKVEVKIEVEQYPNGMVHVKIPIKAESAG [r14_389_TrROS]

>  <folding stability dG unfold>
1.3 kJ/mol

$$$$
>  <sequence chain>
SAGGSAGGSAGGPGWRTIEFWIPVDDFLDEIKLPPGITPIRIIKPNPNGYVRIMIIYPYSAGGSAGGSAGGS [r10_352_TrROS]

>  <folding stability dG unfold>
12.8 kJ/mol

$$$$
>  <sequence chain>
SGNGEVEVEINIRIVIEPWDPNGEPDPVPIAEIPIKAEYDANDPEAVDFAVLDILDLLAPENPGYRIHIESA [r9_1112_TrROS]

>  <folding stability dG unfold>
1.58 kJ/mol

$$$$
>  <sequence chain>
SAGGIIPIENASWDELLNALKEAAEKGDPNVTITFQDPGRPYWIQIDPDENNIEVEHPNGETWRFKISAGGS [r16_481_TrROS]

>  <folding stability dG unfold>
4.16 kJ/mol

$$$$
>  <sequence chain>
SAIVIPIRVQMPPNDPDALEQAKEIADYIADMMMEEGYPFKIEVDDIEWERNPNGHWTVEIPIKIKPPPSAG [r14_48_TrROS]

>  <folding stability dG unfold>
5.21 kJ/mol

$$$$
>  <sequence chain>
SAGGSAGGSAGGAEKFKVLSVSWDLGKGKRYGVLEVERPDGPLLTIVVPLSYPDKLKELASAGGSAGGSAGG [r7_365_TrMRF]

>  <folding stability dG unfold>
5.4 kJ/mol

$$$$

* * *

Assay: folding stability dG unfold from chymotrypsin proteolysis; higher = more stable
Use 2 kcal/mol as the dividing line for folding stability dG unfold, with the line itself on the 1 side and lower values as -1.

>  <sequence chain>
SAGGSAGGSMSTVSTSTTYFPDKKVTTTTTVTPTPDGTTATTPSVTVTPLPPPNPPPAPFNRLSAGGSAGGS [r20_30_JUSTAS]

>  <assigned class>
-1

$$$$
>  <sequence chain>
SAGGSAMRMERIKLPDGKDITIMRHPNEPRQYQLFFPGGRSISVNFPSPEEAIDHALEWIKNGKPFSAGGSA [r15_38_TrROS]

>  <assigned class>
-1

$$$$
>  <sequence chain>
SMKPGDKLLIRIRLPPVKVEREYFDKDGKLVKKETKEVKEVELVIELSPEELEKLRELLKELGFEVEILPSA [r9_167_TrROS_Hall]

>  <assigned class>
1

$$$$
>  <sequence chain>
SAGGKKIVIFIGPPEQMDRMQEQHPDEPVIPIPRDALQDPEPAKNLIKELQEKGKDVEIYLFKDFKPSAGGS [r8_376_TrROS]

>  <assigned class>
-1

$$$$
>  <sequence chain>
SAGGGHMMPNITVDVEEEVFTLPDGSILTRTTVTVTLPNGKKTTVETEYFYDTKTGTVSSKVVKVEASAGGS [r16_166_JUSTAS]

>  <assigned class>
1

$$$$
>  <sequence chain>
SPVAVVTYEDGSVSEVPFTHPDGRAYDLSRGPGDVATLTVTRLLPDGSLEPLPTVPFTSEAEAEAYLAAASA [r9_942_JUSTAS]

>  <assigned class>
-1

$$$$
>  <sequence chain>
SAGKMYLIVIKVDGKEYVIVIPEEEMSEEEIRKLISEELGISEEEVEIVEIVPVEPGESVEEALKKALESAG [r5_900_TrROS_Hall]

>  <assigned class>
1

$$$$
>  <sequence chain>
DMEPEPFTIELPNVKIEVQVYRTPNKLSVNAPIEFPNGKNLTISFKYEPTPDGIKLEISIMIPKKAIEKLLS [r1_153_TrROS]

>  <assigned class>
1

$$$$
>  <sequence chain>
SIEIYEGPEEAEEMAEENGTPVIPIPPDMNLSEILKQLKNQPGLPPDQKIVIVIQWEPGQWYVIRIPIKPSA [r9_314_TrROS]

>  <assigned class>
1

$$$$
>  <sequence chain>
SAGGSAGGSAGGSPNYRLEIRVDIKVSYRYDLFTGEPIEPEVEIEVEIRLIPEGAIVDESAGGSAGGSAGGS [r4_175_TrMRF]

>  <assigned class>
1

$$$$
>  <sequence chain>
SAGMVVIEVKKDEVPVDPEKALVFEFGDKRYILVDGEKAEEIKDAFPNLDIKIKPVSPEELEKLLKAHSAGG [r19_271_TrMRF]

>  <assigned class>
-1

$$$$
>  <sequence chain>
SAGGSAGGSASLSPDEEVEITDPANGTKYKVTKLPDGTVLLENPETGETYVRTDSNDWKLTSAGGSAGGSAG [r3_96_JUSTAS]

>  <assigned class>
-1

$$$$
>  <sequence chain>
SMPRLVATPRPDGSVLVLLEAPPERPEEIAEEIRERLGVPLRVVRIEPVPERVGDRPRLRYRVLIEVDVRSA [r9_431_TrMRF]

>  <assigned class>
-1

$$$$
>  <sequence chain>
SAGGSAGGSAGMTVTVPPDLDPESAIAALKAAAPASVKTVTLTIVDGEGPTTTVTVDITGSAGGSAGGSAGG [r17_215_JUSTAS]

>  <assigned class>
-1

$$$$

* * *

Assay: folding stability dG unfold from chymotrypsin proteolysis; higher = more stable
recorded metric: folding stability dG unfold

>  <sequence chain>
SAGGSAGGSAGGGKEISLDELIDIAIELGYPGTIEDLLADPNIKIYPNPYDDKPVILIPDSAGGSAGGSAGG [r7_180_TrMRF]

>  <result>
0.576 kcal/mol

$$$$
>  <sequence chain>
SAGGSAGGSAMVIEDPKTNKLIEVEKLPDGTYKVTIYDKKTGEKKTITMSKKDLEKLLKALSAGGSAGGSAG [r3_162_TrROS_Hall]

>  <result>
4.78 kcal/mol

$$$$
>  <sequence chain>
SAGGSAGGSPPNWKTIPITFWVDPGDVEEFANILRDLGLEIEDVEVEPNPDGHVWVTITIVIPSAGGSAGGS [r12_905_TrROS]

>  <result>
3.54 kcal/mol

$$$$
>  <sequence chain>
TWTFTIMIPIKPEIREALDSGKPLPIEELVDWIKDEIARMFGFKDVTVKGIEIHPDPNGEIMVMVTIEFKPS [r1_290_TrROS]

>  <result>
4.64 kcal/mol

$$$$
>  <sequence chain>
SMTLTIDLDPSVPYLVRIHFVNEDGEPYEADALTTRTPDGTAFVDIALPDDSIPPGADIKILSVEVIPLDSA [r9_359_TrMRF]

>  <result>
2.1 kcal/mol

$$$$
>  <sequence chain>
SAGGSAGGSAGGAPPPPVKVKVVEIEEEGGERRIRVENEDTGEVVELRVPKGAEVLEELSAGGSAGGSAGGS [r10_1038_TrROS_Hall]

>  <result>
1.37 kcal/mol

$$$$
>  <sequence chain>
SAGGSAGGSAGKDKGQKEVPEINIRIEPVNFHWEYDKGNGKPKSIHFMFKIRYPNGREITSAGGSAGGSAGG [r11_890_TrROS]

>  <result>
0.674 kcal/mol

$$$$
